Origin of values: ChEMBL document CHEMBL5604063

# system.under.test: Genome polyprotein (dengue virus type 2, UniProt P29990)
# Sequence (P29990 1346-1475 limits assumed): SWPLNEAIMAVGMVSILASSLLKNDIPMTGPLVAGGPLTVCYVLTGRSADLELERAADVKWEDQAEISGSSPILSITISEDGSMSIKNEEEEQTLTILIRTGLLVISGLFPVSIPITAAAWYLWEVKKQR
# Sequence (P29990 1476-2093 limits assumed): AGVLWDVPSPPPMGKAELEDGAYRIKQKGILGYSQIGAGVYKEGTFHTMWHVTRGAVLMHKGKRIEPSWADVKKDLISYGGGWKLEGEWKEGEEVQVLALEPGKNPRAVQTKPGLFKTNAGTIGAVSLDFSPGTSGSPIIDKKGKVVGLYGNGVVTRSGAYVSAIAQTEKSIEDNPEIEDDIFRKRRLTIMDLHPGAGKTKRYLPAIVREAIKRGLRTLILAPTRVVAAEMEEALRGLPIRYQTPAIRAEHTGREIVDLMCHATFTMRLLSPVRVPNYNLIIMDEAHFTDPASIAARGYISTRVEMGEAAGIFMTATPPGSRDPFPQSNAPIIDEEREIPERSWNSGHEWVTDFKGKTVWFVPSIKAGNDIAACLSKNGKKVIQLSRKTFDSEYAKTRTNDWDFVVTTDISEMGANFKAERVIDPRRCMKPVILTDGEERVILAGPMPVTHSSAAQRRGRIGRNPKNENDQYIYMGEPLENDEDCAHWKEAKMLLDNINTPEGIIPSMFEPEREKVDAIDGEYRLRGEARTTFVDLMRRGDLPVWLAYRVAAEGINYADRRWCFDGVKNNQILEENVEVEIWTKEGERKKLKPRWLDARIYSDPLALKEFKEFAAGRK
# Assay type: functional, Thailand/16681/1984
pIC50: −log10 of the molar value.
# key: entry, value: pIC50

- item.smiles: "NCc1cc(-c2ccncc2)cc([C@@H]2C[C@H]2c2cc(Cl)cc(NC(=O)OCc3ccccc3)c2)c1"
  pIC50: "< 4.00"
- item.smiles: "CCOc1cccc(-c2ccc(NS(=O)(=O)c3cc(F)c(Cl)cc3C(=O)O)cc2)c1"
  pIC50: 5.03
- item.smiles: "NCc1cccc(NC(=O)c2ccc(=O)n(Cc3ccccc3Cl)c2)c1"
  pIC50: "< 4.00"
- item.smiles: "CCOC(=O)[C@H]1[C@H](c2cc(Cl)cc(NC(=O)OCc3ccccc3)c2)[C@H]1c1cccc(-c2nnn[nH]2)c1"
  pIC50: 4.88
- item.smiles: "O=C(c1cc(Cl)ccc1NS(=O)(=O)c1ccc(Oc2ccccc2Cl)cc1)N1CCC[C@H](O)C1"
  pIC50: 4.20
- item.smiles: "C=CC[C@H](Nc1cncc(Cl)c1)c1cccc(-c2nn[nH]n2)c1"
  pIC50: "< 4.00"
- item.smiles: "NCc1ccc(NC(=O)c2cc(Cl)cc3[nH]ncc23)cc1F"
  pIC50: "< 4.00"
- item.smiles: "O=C1Cc2c(cccc2C(=O)NC2CCC3(CC2)COC3)N1"
  pIC50: "< 4.00"
- item.smiles: "CCn1c(=O)c(N2CC[C@H](CO)C2)nc2ccc(C(N)=O)cc21"
  pIC50: 4.09
- item.smiles: "CC(C)c1ccc([C@@H](NC(=O)OCc2ccccc2)C(=O)Nc2cccc(CN)c2)cc1"
  pIC50: "< 4.00"
- item.smiles: "CC(C)[C@H](NC(=O)c1cc(Cl)cc(NC(=O)OCc2ccccc2)c1)c1nn[nH]n1"
  pIC50: "< 4.00"
- item.smiles: "CS(=O)(=O)c1cccc(NC(=O)c2cc(Cl)cc(NC(=O)OCc3ccccc3)c2)c1"
  pIC50: "< 4.00"
- item.smiles: "O=C1Cc2c(cccc2C(=O)N[C@H]2CCc3cnccc32)N1"
  pIC50: "< 4.00"
- item.smiles: "CNC(=O)c1cc(Cl)c(OC)cc1NS(=O)(=O)c1ccc(Oc2ccccc2Cl)cc1"
  pIC50: 4.50
- item.smiles: "COC(=O)C(C)(C)NC(=O)[C@H](Nc1ccc2c(c1)CNC2)c1cc(Cl)cc(C2CC2)c1"
  pIC50: "< 4.00"
- item.smiles: "NCc1ccc(NC(=O)c2cc(Cl)cc(NC(=O)OCc3ccccc3)c2)cc1"
  pIC50: 4.29
- item.smiles: "O=C(O)c1cc(Cl)ccc1S(=O)(=O)Nc1ccc(S(=O)(=O)Nc2ccccc2)cc1"
  pIC50: "< 4.00"
- item.smiles: "O=C(Nc1ccc2c(c1)CNC2)c1cc(Cl)cc2[nH]c(-c3cnccc3O)nc12"
  pIC50: 4.43
- item.smiles: "CCCN1C(=O)[C@](Nc2ccc3c(c2)CNC3)(C(=O)NC)c2ccccc21"
  pIC50: "< 4.00"
- item.smiles: "O=C(NCc1ccccc1)c1cc(O)ccc1NS(=O)(=O)c1ccc(Oc2ccccc2Cl)cc1"
  pIC50: 4.06
- item.smiles: "Cc1c(C(=O)Nc2ccc3c(c2)CS(=O)(=O)C3)cc(C2CC2)n1C"
  pIC50: "< 4.00"
- item.smiles: "O=C(Nc1ccc2c(c1)CNC2)c1ccccc1-n1cccc1"
  pIC50: "< 4.00"
- item.smiles: "CCn1cc(-c2ccccc2N)nc(N2CC[C@@H](CO)C2)c1=O"
  pIC50: "< 4.00"
- item.smiles: "O=C(Nc1cc(-c2cccnc2)ccn1)c1nc(C2CC2)co1"
  pIC50: "< 4.00"
- item.smiles: "COc1ccc(NS(=O)(=O)c2ccc(Cl)cc2C(=O)O)cc1N1CCCC1=O"
  pIC50: "< 4.00"
- item.smiles: "COC(=O)c1cc(Cl)cc(S(=O)(=O)Nc2cccc(-c3nnn[nH]3)c2)c1F"
  pIC50: "< 4.00"
- item.smiles: "O=C(Nc1cc(-c2cccnc2)ccn1)c1cc2n(c1)CCC2"
  pIC50: "< 4.00"
- item.smiles: "CCCCCn1cc(C(=O)Nc2cccc(CN)c2)c2ccccc21"
  pIC50: "< 4.00"
- item.smiles: "CCNC(=O)Nc1cc(Cl)cc(C(=O)Nc2cccc(CN)c2)c1"
  pIC50: "< 4.00"
- item.smiles: "c1ccc2c(CN3CCN(c4ccncc4)CC3)c[nH]c2c1"
  pIC50: "< 4.00"
- item.smiles: "CN(C)Cc1cc(NC(=O)[C@H](NC(=O)OCc2ccccc2)c2ccc(OCc3ccccc3)cc2)sn1"
  pIC50: "< 4.00"
- item.smiles: "CCCN1C(=O)[C@](C#N)(Nc2ccc3c(c2)CNC3)c2ccccc21"
  pIC50: "< 4.00"
- item.smiles: "CN1CCc2nc(NC(=O)c3cc(Cl)cc(NC(=O)OCc4ccccc4)c3)sc2C1"
  pIC50: "< 4.00"
- item.smiles: "Nc1nccc(C(=O)Nc2ccc3c(c2)CNC3)n1"
  pIC50: "< 4.00"
- item.smiles: "NS(=O)(=O)c1ccc(C(F)F)cc1-c1ccc2[nH]c(C(=O)O)cc2c1"
  pIC50: "< 4.00"
- item.smiles: "NCc1cc(Cl)cc(C(=O)Nc2cc([C@H]3CCOC3)ccn2)c1"
  pIC50: "< 4.00"
- item.smiles: "O=C1Cc2c(cccc2C(=O)Nc2ccnn2Cc2ccncc2)N1"
  pIC50: "< 4.00"
- item.smiles: "Cc1sc2nc(-c3cccs3)[nH]c(=O)c2c1C"
  pIC50: "< 4.00"
- item.smiles: "N#Cc1ccc(N2CCN(Cc3c[nH]c4ccccc34)CC2)cc1"
  pIC50: "< 4.00"
- item.smiles: "CCn1ccnc(N2CC[C@@H](C(=O)NC)C2)c1=O"
  pIC50: "< 4.00"
- item.smiles: "CC(C)c1occ(C(F)(F)F)c1C(=O)Nc1cccc(CN)c1"
  pIC50: "< 4.00"
- item.smiles: "Cc1cc(C(=O)Nc2cccc(CN)c2)cc(NC(=O)OCc2ccccc2)c1Cl"
  pIC50: 4.26

====

# system.under.test: Genome polyprotein (dengue virus type 2)
# Format: functional, Thailand/16681/1984
Recorded measurements of IC50, one per entry

- item.smiles: "O=Cc1ccc(N2CCC(C(=O)NC[C@@H]3CCCN4CCCC[C@H]34)CC2)cc1"
  IC50: "> 99.9 µM"
- item.smiles: "O=C(Nc1ccc2c(c1)CNC2)c1cc(Cl)cc2[nH]c(-c3ncnn3C3CC3)nc12"
  IC50: "> 99.5 µM"
- item.smiles: "CC(F)(F)c1cccc(NC(=O)c2cc(Cl)cc(NC(=O)OCc3ccccc3)c2)c1"
  IC50: "> 99.5 µM"
- item.smiles: "Cc1cc(C=O)c(C)n1-c1cccc(C(=O)N2CCN(C)CC2)c1"
  IC50: "> 99.5 µM"
- item.smiles: "O=C(O)Cn1nc2ccc(-c3cc(Cl)cc(NC(=O)OCc4ccccc4)c3)nn2c1=O"
  IC50: "> 99.5 µM"
- item.smiles: "COc1ccc(CNC(=O)[C@@H](NC(=O)OCc2ccccc2)c2ccc(OCc3ccccc3)cc2)cn1"
  IC50: "> 99.5 µM"
- item.smiles: "COc1cc2c(CN3CCC(c4cscn4)CC3)c[nH]c2cc1Cl"
  IC50: "> 99.5 µM"
- item.smiles: "OCC#C[C@H](Nc1ccc2c(c1)CNC2)c1cc(Cl)cc2[nH]ncc12"
  IC50: "25.1 µM"
- item.smiles: "CC(C)c1nc2c(C(=O)Nc3cccc(CN)c3)cccc2[nH]1"
  IC50: "> 99.5 µM"
- item.smiles: "NCc1cccc(NC(=O)[C@@H](NC(=O)OCc2ccccc2)c2cccc(F)c2F)c1"
  IC50: "> 99.5 µM"
- item.smiles: "O=C(Nc1ccc2c(c1)CNC2)c1n[nH]c(=O)c2ccccc12"
  IC50: "36.8 µM"
- item.smiles: "Cc1c(C(=O)Nc2cc(C(N)=O)ccn2)cc(C2CC2)n1C"
  IC50: "> 99.5 µM"
- item.smiles: "O=C(Nc1ccc2c(c1)CNC2)c1cc(F)cc(-c2cn[nH]c2)c1"
  IC50: "> 99.5 µM"
- item.smiles: "O=C(Cn1ccnc(N2CC[C@H](CO)C2)c1=O)N1CCOCC1"
  IC50: "> 99.5 µM"
- item.smiles: "N#Cc1cccc(-c2nc3c(C(=O)Nc4cccc(F)c4)cc(Cl)cc3[nH]2)c1"
  IC50: "> 99.5 µM"
- item.smiles: "CCOCC(=O)N1CCC([C@H](NC(=O)OCc2ccccc2)C(=O)Nc2cccc(CN)c2)CC1"
  IC50: "> 99.5 µM"
- item.smiles: "CC(C)c1cc(S(=O)(=O)N[C@H](C(=O)Nc2cccc(CN)c2)c2ccc(OCc3ccccc3)cc2)on1"
  IC50: "> 99.5 µM"
- item.smiles: "N#Cc1ccc(S(=O)(=O)Nc2ccc(Oc3ccccc3Cl)cc2)c(C(=O)O)c1"
  IC50: "55.7 µM"
- item.smiles: "NCc1cccc(NC(=O)c2cc(Cl)cc(CNC(=O)OCc3ccccc3)c2)c1"
  IC50: "84.3 µM"
- item.smiles: "NCc1cccc(NC(=O)C[C@H](CC(N)=O)c2ccc(F)cc2)c1"
  IC50: "> 99.5 µM"
